assay: cn = amount concentration of the nth substance listed, in mol/dm3; details: 303 K; 101 kPa; Liquid; Linear variable-path acoustic interferometer; c1 = 0.018
property_label: speed of sound (m/s)
Report as a plain number; the unit m/s is understood.

Some solved entries appear below for comparison.
- molecule: "CNc1ccccc1 [N-methylaniline] + C[S+](C)[O-]"
  speed of sound / m/s: 1473
- molecule: "O=C1C(Cl)=C(Cl)C(=O)C(Cl)=C1Cl [2,3,5,6-tetrachloro-p-benzoquinone] + C[S+](C)[O-]"
  speed of sound / m/s: 1468.5
- molecule: "CN(C)c1ccccc1 [N,N-dimethylaniline] + C[S+](C)[O-]"
  speed of sound / m/s: 1472.2
- molecule: "Nc1ccccc1 [aniline] + C[S+](C)[O-]"
  speed of sound / m/s: 1473

Alright, here's another molecule for you.
What the record says about Cc1ccccc1N [2-methylaniline] + C[S+](C)[O-] : speed of sound is 1473
